Experiment: qHTS RealTime-Glo MT Cell Viability Assay in HepG2 cells - 8 hour (AID 1224873); note: nearly all actives have a fitted effect of over 55% in size
Experimental setup: RealTime-Glo luminescence; series mostly up to 76.8 µM
Records with an inconclusive call do not appear. Active and inactive are the calls of the source. Calls come from the whole dose curve; as a rule, active = well fitted cell-killing curve with a large enough effect in the repeat runs; inconclusive = weak or mixed curves; inactive = flat fitted curve, though single readings scatter.
Can you answer with just one of these options? true = active, false = inactive

Illustrative cases are given below, each with its answer.
Compound | Label
Oc1c(I)cc(I)cc1I | false
CNC(=O)Oc1cc(C)c(SC)c(C)c1 | false
OC(Cc1ccccc1Cl)(Cn1[nH]cnc1=S)C1(Cl)CC1 (centres undefined) | false
O=C(Nc1ccccc1-c1ccc(Cl)cc1)c1cccnc1Cl | false

Which result was noted for this compound in the test: Nc1ccc([N+](=O)[O-])cc1
false

Another: ClC(Cl)=C(c1ccc(Cl)cc1)c1ccccc1Cl
false

Can you handle Cc1ccc(N(SC(F)(Cl)Cl)S(=O)(=O)N(C)C)cc1 next?
true

Input O=S(=O)(C(Cl)(Cl)Cl)C(Cl)(Cl)Cl
true

Now consider CCOC(=O)C(O)(c1ccc(Cl)cc1)c1ccc(Cl)cc1 and answer again.
false

###

Experiment: qHTS assay to identify small molecule antagonists of the androgen receptor (AR) signaling pathway using the MDA cell line - cell viability counter screen (AID 743041; note: nearly all actives have a fitted effect of over 45% in size)
Experimental setup: MDA-kb2 viability, CellTiter-Fluor, 16 h, cells co-treated with R1881 androgen agonist; series mostly up to 70.3 µM
Inconclusive results are not listed. Activity calls are given as the source filed them. Calls come from the whole dose curve; as a rule, active = well fitted cell-killing curve with a large enough effect in the repeat runs; inconclusive = weak or mixed curves, or effect the other way; inactive = flat fitted curve, though single readings scatter.
Assay readout: outcome

Molecule | Data value
COc1ccc2c3c1O[C@H]1C(=O)CC[C@H]4[C@@H](C2)N(C)CC[C@]314 | inactive
O=C(NC(=O)c1c(F)cccc1F)Nc1ccc(Cl)c(Oc2ncc(C(F)(F)F)cc2Cl)c1 | inactive
CC(=O)O[C@H]1CC[C@H]2[C@@H]3CCC4=CC(=O)CCC4=C3C=C[C@]12C | inactive
NCC[C@H](O)C(=O)N[C@@H]1C[C@H](N)[C@@H](O[C@H]2O[C@H](CN)[C@@H](O)[C@H](O)[C@H]2N)[C@H](O[C@@H]2O[C@H](CO)[C@@H](O)[C@H]2O)[C@H]1O | inactive
C[C@]12C=CC(=O)C=C1CC[C@@H]1[C@@H]2CC[C@]2(C)OC(=O)CC[C@@H]12 | inactive
N#CC1(N2CCCCC2)CCCCC1 | inactive
CC[N+](C)(CC)CCOC(=O)C(O)(c1ccccc1)c1ccccc1 | inactive
Cc1cc(C(C)(C)c2ccc(O)c(C)c2)ccc1O | inactive
O=C(O)/C=C/C(=O)O | inactive

Attention now turns to another entry.
Item CNC(C)CC1CCCCC1 (stereo not given) has what recorded outcome?
inactive

###

Experiment: qHTS assay to identify small molecule antagonists of the thyroid receptor (TR) signaling pathway (AID 743065); note: nearly all actives have a fitted effect of over 55% in size
Experimental setup: GH3.TRE-Luc, T3-stimulated luciferase inhibition, 23.5 h; series mostly up to 70.3 µM
Results filed as inconclusive are left out. Active and inactive are the calls of the source. The call rests on the fitted dose curve; in most records, active means well fitted inhibition curve with a large enough effect in the repeat runs; inconclusive means weak or mixed curves; inactive means no such curve, though single readings can be large or run the other way.
Select the matching outcome among active, inactive

Here's what some known entries look like.
Compound | Label
O=C(NC(=O)c1c(F)cccc1F)Nc1ccc(Cl)c(Oc2ncc(C(F)(F)F)cc2Cl)c1 | inactive
C[C@@H](N)C(=O)c1ccccc1 | inactive
C[C@H]1CC[C@]2(NC1)O[C@H]1C[C@H]3[C@@H]4CC[C@H]5C[C@@H](O[C@@H]6O[C@H](CO)[C@H](O[C@@H]7O[C@H](CO)[C@@H](O)[C@H](O[C@@H]8OC[C@@H](O)[C@H](O)[C@H]8O)[C@H]7O[C@@H]7O[C@H](CO)[C@@H](O)[C@H](O)[C@H]7O)[C@H](O)[C@H]6O)CC[C@]5(C)[C@H]4CC[C@]3(C)[C@H]1[C@@H]2C | active

Consider the record given below.
Recorded test outcome, item CC(Cc1ccccc1)NC=O (centres undefined)
inactive
